Molecular target: C5a receptor (Homo sapiens, UniProt P21730)
Sequence (P21730 1-350): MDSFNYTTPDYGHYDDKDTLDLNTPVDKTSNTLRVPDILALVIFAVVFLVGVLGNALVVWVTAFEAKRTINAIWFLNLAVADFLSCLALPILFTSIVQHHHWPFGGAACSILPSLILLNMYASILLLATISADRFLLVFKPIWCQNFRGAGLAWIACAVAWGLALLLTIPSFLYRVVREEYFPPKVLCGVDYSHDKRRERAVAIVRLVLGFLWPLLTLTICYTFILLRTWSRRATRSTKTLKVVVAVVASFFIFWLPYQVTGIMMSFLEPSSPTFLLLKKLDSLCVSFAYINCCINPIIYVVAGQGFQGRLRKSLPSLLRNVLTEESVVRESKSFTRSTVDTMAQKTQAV
Experiment: Calcium Mobilization Assay (C5a-induced Ca2+ mobilization, FLIPR, differentiated U937 cells)
Conditions: […] recombinant human C5a, 20 min pre-incubation, multiple values = duplicate experiments, read-out: C5a Induced Ca Mobil. Average IC50
pIC50: −log10 of the molar value.
measurement kind: pIC50

Below: 2 compounds and their reported pIC50.
| compound | pIC50 |
| --- | --- |
| CCc1cccc(CC)c1-c1cc(OC)c2c(n1)CCCC2NC1Cc2ccccc2C1 (stereo not drawn) | < 5.00 |
| CCc1cccc(CC)c1-c1cc(OC)c2c(n1)CCCC2N1CCc2cc(C(=O)OC)ccc2C1 (stereo not drawn) | < 5.00 |

Now for a further compound.
Lab note: need pIC50 with C5a receptor (Homo sapiens, UniProt P21730) for entry CCc1cccc(CC)c1-c1cc(OC)c2c(n1)CCCC2N(C)Cc1cccnc1 (stereo not drawn) , please look it up.
< 5.00

---

target: UniProt:P21730; test: [125I]-C5a Radioligand Binding Assay (competition binding, differentiated U937 cells); settings: read-out: [125I]-C5a Binding % Inhibition 10 μM, test compound 10 μM; [125I]-C5a 0.05 nM; U937 cells; multiple values = duplicate experiments
What inhibition at 10 µM was measured for each of the following?
Answer format: value, then unit.

Below: 5 compounds and their reported inhibition at 10 µM.
| compound | value reported |
| --- | --- |
| COc1ccc2cccc(N(C)C3CCCc4nc(-c5c(C)cccc5C)cc(OC)c43)c2c1 (stereo not shown) [Compound 116] | 86% |
| CCc1cccc(CC)c1-c1cc(OC)c2c(n1)CCCC2NC1Cc2ccccc2C1 (stereo not shown) [Compound 88] | 51% |
| CCc1cccc(CC)c1-c1cc(OC)c2c(n1)CCCC2N(C)Cc1cccs1 (stereo not shown) [Compound 94] | 77% |
| CCc1cccc(CC)c1-c1cc(OC)c2c(n1)CCCC2Nc1cccc2c1CCC2 (stereo not shown) [Compound 121] | 75% |
| CCc1cccc(CC)c1-c1cc(OC)c2c(n1)CCCC2N(C)Cc1ccco1 (stereo not shown) [Compound 92] | 62% |

Items follow; give inhibition at 10 µM for each.
1. CCc1cccc(CC)c1-c1cc(OC)c2c(n1)CCCC2N1CCc2ccc(OC)cc2C1 (stereo not shown) [Compound 100]
2. CCc1cccc(CC)c1-c1cc(OC)c2c([n+]1[O-])CCCC2N(CC)c1cccc2ccccc12 (racemic) [Compound 19]
3. CCc1cccc(CC)c1-c1cc(OC)c2c(n1)CCCC2N1CCc2ccc(C#N)cc2C1 (stereo not shown) [Compound 96]
4. COc1cc(-c2c(C)cccc2C)nc2c1C(N(C)c1cccc3ccccc13)CCC2 (stereo not shown) [Compound 61]

["82%", "86%", "87%", "88%"]

Items follow; give inhibition at 10 µM for each.
1. CCc1cccc(CC)c1-c1cc(OC)c2c(n1)CCCC2N(C)c1cccc2c1CCC2 (stereo not shown) [Compound 72]
2. CCc1cccc(CC)c1-c1cc(OC)c2c(n1)CCCC2N(C)c1ccc(OC)c2ccccc12 (stereo not shown) [Compound 36]
3. CCN(c1cccc2ccccc12)C1CCCc2nc(-c3cccc4ccccc34)cc(OC)c21 (stereo not shown) [Compound 78]
4. CCN(c1cccc(C)c1C)C1CCCc2nc(-c3c(C)cccc3C)cc(OC)c21 (stereo not shown) [Compound 76]
5. CCc1cccc(CC)c1-c1cc(OC)c2c(n1)CCCC2Oc1cccc2ccccc12 (stereo not shown) [Compound 105]

85%
87%
85%
85%
70%

Items follow; give inhibition at 10 µM for each.
1. CCc1cccc(CC)c1-c1cc(OC)c2c(n1)CCCC2N1CCc2ccc(F)cc2C1 (stereo not shown) [Compound 45]
2. CCc1cccc(CC)c1-c1cc(OC)c2c(n1)CCCC2Nc1c(C)ccc2ccccc12 (stereo not shown) [Compound 119]

87%
74%

---

biological target: UniProtKB P21730; experiment: [125I]-C5a Radioligand Binding Assay (competition binding, differentiated U937 cells); settings: read-out: [125I]-C5a Binding % Inhibition 10 μM, test compound 10 μM; [125I]-C5a 0.05 nM; U937 cells; multiple values = duplicate experiments
measurement kind: inhibition at 10 µM (%)
One number for each entry, in %.

Below: 3 molecules and their reported inhibition at 10 µM.
| molecule | inhibition at 10 µM, % |
| --- | --- |
| CCc1cccc(CC)c1-c1cc(OC)c2c(n1)CCCC2N1CCc2cccc(C(=O)OC)c2C1 (stereo not shown) | 87 |
| CCc1cccc(CC)c1-c1cc(OC)c2c(n1)CCCC2Nc1cc(OC)ccc1OC (stereo not shown) | 89 |
| CCc1cccc(CC)c1-c1cc(OC)c2c(n1)CCCC2N(C)c1cc(OC)ccc1Cl (stereo not shown) | 89 |

Now for a further molecule.
Quick one: inhibition at 10 µM of CCc1cccc(CC)c1-c1cc(OC)c2c(n1)CCCC2N(C)C1Cc2ccccc2C1 (stereo not shown) ?
68

---

biological target: C5a receptor (Homo sapiens, UniProt P21730); assay: [125I]-C5a Radioligand Binding Assay (competition binding, differentiated U937 cells); details: read-out: [125I]-C5a Binding % Inhibition 1 μM, test compound 1 μM; [125I]-C5a 0.05 nM; U937 cells; multiple values = duplicate experiments
measurement kind: inhibition at 1 µM (%)
Numbers only, in %.

Below: 5 molecules and their reported inhibition at 1 µM.
| molecule | inhibition at 1 µM / % |
| --- | --- |
| CCc1cccc(CC)c1-c1cc(OC)c2c(n1)CCCC2N(C)c1ccc(OC)c2ccccc12 (stereo not shown) [Compound 36] | 86 |
| CCc1cccc(CC)c1-c1cc(OC)c2c(n1)CCCC2N1CCc2c(cccc2C(=O)O)C1 (stereo not shown) [Compound 129] | -46 |
| CCc1cccc(CC)c1-c1cc(OC)c2c(n1)CCCC2Nc1ccc(OC)cc1C (stereo not shown) [Compound 63] | 74 |
| CCc1cccc(CC)c1-c1cc(OC)c2c(n1)CCCC2N1CCc2cc(C(=O)O)ccc2C1 (stereo not shown) [Compound 128] | -25 |
| COc1cc(-c2c(C)cccc2C)nc2c1C(N(C)c1cccc3ccccc13)CCC2 (stereo not shown) [Compound 61] | 76 |

Items follow; give inhibition at 1 µM for each.
1. CCc1cccc(CC)c1-c1cc(OC)c2c(n1)CCCC2N(C)c1cccc2ccccc12 (stereo not shown) [Compound 104]
2. CCc1cccc(CC)c1-c1cc(OC)c2c(n1)CCCC2Oc1cc(OC)ccc1C (stereo not shown) [Compound 29]
3. CCc1cccc(CC)c1-c1cc(OC)c2c(n1)CCCC2N(C)Cc1cccc2ccccc12 (stereo not shown) [Compound 90]
4. CCc1cccc(CC)c1-c1cc(OC)c2c(n1)CCCC2N(C)c1cccc2c(OC)cccc12 (stereo not shown) [Compound 118]
5. CCc1cccc(CC)c1-c1cc(OC)c2c(n1)CCCC2N(CC)Cc1ccccc1 (stereo not shown) [Compound 85]

1: 56; 2: 88; 3: 87; 4: 71; 5: 56

---

What inhibition at 1 µM was measured for each of the following?
Biological target: C5a receptor (Homo sapiens)
Sequence (P21730 1-350): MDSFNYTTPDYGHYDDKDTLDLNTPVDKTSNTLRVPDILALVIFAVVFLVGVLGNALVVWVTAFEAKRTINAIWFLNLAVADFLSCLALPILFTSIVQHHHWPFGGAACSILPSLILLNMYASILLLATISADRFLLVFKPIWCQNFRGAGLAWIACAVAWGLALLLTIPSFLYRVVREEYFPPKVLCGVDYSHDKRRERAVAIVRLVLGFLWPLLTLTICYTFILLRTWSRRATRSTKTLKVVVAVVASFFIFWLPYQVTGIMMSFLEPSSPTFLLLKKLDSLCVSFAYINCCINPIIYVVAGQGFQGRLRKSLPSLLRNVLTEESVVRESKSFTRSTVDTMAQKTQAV
Experiment: [125I]-C5a Radioligand Binding Assay (competition binding, differentiated U937 cells);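 note: cells preincubated with compound 30 min at room temperature, then 60 min at 4 °C with radioligand, bound counts read by scintillation, nonspecific binding defined with 100 nM C5a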
Details: read-out: [125I]-C5a Binding % Inhibition 1 μM, test compound 1 μM; [125I]-C5a 0.05 nM; U937 cells; multiple values = duplicate experiments
Answer format: value, then unit.

| compound | inhibition at 1 µM |
| --- | --- |
| CCc1cccc(CC)c1-c1cc(OCc2ccccc2)c2c(n1)CCCC2N(CC)c1cccc2ccccc12 (stereo not drawn) | 90% |

Items follow; give inhibition at 1 µM for each.
1. CCc1cccc(CC)c1-c1cc(OC)c2c(n1)CCCC2N1CCc2cccc(C(F)(F)F)c2C1 (stereo not drawn)
2. CCc1cccc(CC)c1-c1cc(OC)c2c(n1)CCCC2N1CCc2cc(C(=O)OC)ccc2C1 (stereo not drawn)

1. 93%
2. 43%

Hey, just so you know, these numbers are from patent US20090048295A1.
